Tested on: Staphylococcus sp.
Experiment: In vitro antibacterial evaluation: minimum inhibitory concentration (MIC), broth dilution method
Format: cell-based
Conditions: broth dilution, 5×10^5 CFU/mL, 18 hours at 35° C.
measurement_label: MIC Staphylococcus aureus (GC 4542) (µg/mL)
Numbers only; they are read as µg/mL.

CC(c1ccccc1)C1NC(=O)CNC(=O)C(CO)NC(=O)C(C(O)C2CNC(=N)N2C2OC(CO)C(O)C(O)C2O)NC(=O)C(C(O)C2CNC(=N)N2)NC(=O)C(Cc2ccc(OC3OC(CO)C(OC4OC5COC(c6ccc(Oc7ccc(C(C)(C)C)cc7)cc6)OC5C(O)C4O)C(O)C3O)cc2)NC1=O (stereo not shown) ... 4

MIC Staphylococcus aureus (GC 4542) for CC(c1ccccc1)C1NC(=O)CNC(=O)C(CO)NC(=O)C(C(O)C2CNC(=N)N2C2OC(CO)C(O)C(O)C2O)NC(=O)C(C(O)C2CNC(=N)N2)NC(=O)C(Cc2ccc(OC3OC(CO)C(OC4OC5COC(c6cccc(Oc7ccccc7)c6)OC5C(O)C4O)C(O)C3O)cc2)NC1=O (stereo not shown) is 4

---

System: Staphylococcus sp.
Assay: In vitro antibacterial evaluation: minimum inhibitory concentration (MIC), broth dilution method
Type: cell-based
Conditions: Coagulase Negative Staphylococcus (GC 4547); broth dilution, 18 hours at 35° C.
measurement_label: MIC Coagulase Negative Staphylococcus (GC 4547)
Just so you know, I need the unit written after the number.

CC(C)CC(=O)OC1C(OC2C(CO)OC(Oc3ccc(CC4NC(=O)C(C(C)c5cccc(F)c5)NC(=O)CNC(=O)C(CO)NC(=O)C(C(O)C5CNC(=N)N5C5OC(CO)C(O)C(O)C5O)NC(=O)C(C(O)C5CNC(=N)N5)NC4=O)cc3)C(O)C2O)OC(CO)C(O)C1O (stereo not shown) [Example 264a] ... 8 µg/mL
CC(C)CC(=O)OC1C(OC2C(CO)OC(Oc3ccc(CC4NC(=O)C(C(C)c5cccs5)NC(=O)CNC(=O)C(CO)NC(=O)C(C(O)C5CNC(=N)N5C5OC(CO)C(O)C(O)C5O)NC(=O)C(C(O)C5CNC(=N)N5)NC4=O)cc3)C(O)C2O)OC(CO)C(O)C1O (stereo not shown) [Example 265a] ... 8 µg/mL
CC=C(C)C(=O)OC1C(CO)OC(OC2C(CO)OC(Oc3ccc(CC4NC(=O)C(C(C)c5ccccc5)NC(=O)CNC(=O)C(CO)NC(=O)C(C(O)C5CNC(=N)N5C5OC(CO)C(O)C(O)C5O)NC(=O)C(C(O)C5CNC(=N)N5)NC4=O)cc3)C(O)C2O)C(O)C1O (stereo not shown) [Example 278b] ... 4 µg/mL

GET /values?item= CC(C)CC(=O)OC1C(O)C(CO)OC(OC2C(CO)OC(Oc3ccc(CC4NC(=O)C(C(C)c5ccc(Cl)cc5)NC(=O)CNC(=O)C(CO)NC(=O)C(C(O)C5CNC(=N)N5C5OC(CO)C(O)C(O)C5O)NC(=O)C(C(O)C5CNC(=N)N5)NC4=O)cc3)C(O)C2O)C1O (stereo not shown) [Example 262b] &system= Staphylococcus sp. returns MIC Coagulase Negative Staphylococcus (GC 4547): 2 µg/mL

---

System: Enterococcus sp.
Experiment: In vitro antibacterial evaluation: minimum inhibitory concentration (MIC), broth dilution method
Type: cell-based
Conditions: Enterococcus faecium (GC 4557); 18 hours at 35° C.
measurement_label: MIC Enterococcus faecium (GC 4557)

Recorded MIC Enterococcus faecium (GC 4557), per entry:
CC(c1ccccc1)C1NC(=O)CNC(=O)C(CO)NC(=O)C(C(O)C2CNC(=N)N2C2OC(CO)C(O)C(O)C2O)NC(=O)C(C(O)C2CNC(=N)N2)NC(=O)C(Cc2ccc(OC3OC(CO)C(OC4OC(COCC=C(c5ccccc5)c5ccccc5)C(O)C(O)C4O)C(O)C3O)cc2)NC1=O (stereo not shown) ... 2 µg/mL
COc1ccc(COC2C(CO)OC(OC3C(CO)OC(Oc4ccc(CC5NC(=O)C(C(C)c6ccccc6)NC(=O)CNC(=O)C(CO)NC(=O)C(C(O)C6CNC(=N)N6C6OC(CO)C(O)C(O)C6O)NC(=O)C(C(O)C6CNC(=N)N6)NC5=O)cc4)C(O)C3O)C(O)C2O)cc1OCc1ccccc1 (stereo not shown) [Example 239a] ... 4 µg/mL
CC(c1ccccc1)C1NC(=O)CNC(=O)C(CO)NC(=O)C(C(O)C2CN(c3ncccn3)C(=N)N2C2OC(CO)C(O)C(O)C2O)NC(=O)C(C(O)C2CNC(=Nc3ncccn3)N2)NC(=O)C(Cc2ccc(OC3OC(CO)C(OC4OC5COC6(OC5C(O)C4O)C4CC5CC(C4)CC6C5)C(O)C3O)cc2)NC1=O (stereo not shown) ... 16 µg/mL
CCCOc1ccc(COCC2OC(OC3C(CO)OC(Oc4ccc(CC5NC(=O)C(C(C)c6ccccc6)NC(=O)CNC(=O)C(CO)NC(=O)C(C(O)C6CNC(=N)N6C6OC(CO)C(O)C(O)C6O)NC(=O)C(C(O)C6CNC(=N)N6)NC5=O)cc4)C(O)C3O)C(O)C(O)C2O)cc1 (stereo not shown) ... 0.5 to 2 µg/mL

MIC Enterococcus faecium (GC 4557) for CC(c1ccccc1)C1NC(=O)CNC(=O)C(CO)NC(=O)C(C(O)C2CN(Cc3ccc(C(F)(F)F)cc3)C(=N)N2C2OC(CO)C(O)C(O)C2O)NC(=O)C(C(O)C2CNC(=N)N2)NC(=O)C(Cc2ccc(OC3OC(CO)C(OC4OC5COC6(OC5C(O)C4O)C4CC5CC(C4)CC6C5)C(O)C3O)cc2)NC1=O (stereo not shown) is 2 µg/mL

MIC Enterococcus faecium (GC 4557) for CCCC(C)C1OCC2OC(OC3C(CO)OC(Oc4ccc(CC5NC(=O)C(C(C)c6ccc(Cl)cc6)NC(=O)CNC(=O)C(CO)NC(=O)C(C(O)C6CNC(=N)N6C6OC(CO)C(O)C(O)C6O)NC(=O)C(C(O)C6CNC(=N)N6)NC5=O)cc4)C(O)C3O)C(O)C(O)C2O1 (stereo not shown) is 2 µg/mL

MIC Enterococcus faecium (GC 4557) for CC(c1ccccc1)C1NC(=O)CNC(=O)C(CO)NC(=O)C(C(O)C2CNC(=N)N2C2OC(CO)C(O)C(O)C2O)NC(=O)C(C(O)C2CNC(=N)N2)NC(=O)C(Cc2ccc(OC3OC(CO)C(OC4OC(COCC=Cc5ccc(N(C)C)cc5)C(O)C(O)C4O)C(O)C3O)cc2)NC1=O (stereo not shown) is 32 µg/mL

Source of measurements: patent US8247211B2
